tested on: Plasmodium berghei; assay: Luciferase/luciferin-expressing antifolate-resistant parasites were used to infect a culture of HepG2 cells that were pre-incubated with compounds. Infected hepatocytes emit light due to the luciferase reaction. Assay results are presented as the percent inhibition of light emission compared to control. […]; type: functional; details: sporozoite, FFLUC_HILL_SLOPE 8.97, FFLUC_R_SQUARED 0.0554, PBLUC_HILL_SLOPE 11, PBLUC_R_SQUARED 0.441, read-out: LUCIFERASE INFECTION ASSAY - IC50
pIC50: −log10 of the molar value.

{"columns": ["Structure", "pIC50"],
 "data": [
  ["CNc1snc(C)c1C(=O)OCc1cc(Cl)ccc1OC", 5.47]
]}
